This document collects IC50 values reported for Type-1 angiotensin II receptor (Homo sapiens, UniProt P30556).
quantityKind: IC50 (µM)

chemicalstring=CCCCC(=O)N(Cc1ccc(-c2ccccc2C(=O)O)cc1)c1ccccc1 readoutqualifier== assayvalue=53
chemicalstring=CCc1cnc(N2Cc3ccc(-c4ccccc4-c4nnn[nH]4)cc3C2)s1 readoutqualifier== assayvalue=79
chemicalstring=CCCCC(=O)N1Cc2ccc(-c3ccccc3-c3nnn[nH]3)cc2C1 readoutqualifier=> assayvalue=400

----------
# assayComment: Half-life in male C57BL/6J mouse at 3 mg/kg, iv by LC-MS analysis
# Assay type: ADME, organism-based
# measurementSetup: in vivo
quantityKind: half-life (min)

chemicalstring=CCCCC(=O)N1CC2(C1)CN(c1ccccc1-c1nnn[nH]1)C2 assayvalue=19
